Method summary: soluble on expression in E. coli; label from the status in PepcDB or PDB records
Assay readout: soluble on expression in E. coli

Recorded results for 10 sequences are shown here.
MMNQDIEKVLISEEQIQEKVLELGAIIAEDYKNTVPLAIGVLKGAMPFMADLLKRTDTYLEMDFMAVSSYGHSTVSTGEVKILKDLDTSVEGRDILIVEDIIDSGLTLSYLVDLFKYRKAKSVKIVTLLDKPTGRKVDLKADYVGFTVPHEFVVGYGLDYKEQYRNLPYVGVLKPSVYSN : not soluble
MSLSNERSSEKTLQNLKTQLLEDSSFLSKLREKITPHIDDHDIQKIIRDYLLTNPEIIIEMQLILQDKLEKQSAQNTQKQASIINSLKKQIFQSPYDAVLGNPNGKRVLVDFFDYNCGYCKISYPYIENLIKEYPDLRVIIKDLPILGSDSMAAHIVAYAFRKQFPEKYPQFYKELLTHQSRANEIKAIKIAVSLGADEKKLRNAIKDSSLQNAFKKNIQIASRLNITGTPSYIIGDKLLIGAVSEEILKEAIENMQEGHHHHHH : soluble
THILTLTSGFHLWSHTENSGKKSKIIAVHGGPGETHESFETLPLGVPNAEITSYDQLGSWYSDQPDFSDPKLAKKYLRIEYFVNELEEVRRQLEYDKFILLGYSWGAMIALEYALKYPGNLDKLVIVGMSDRESDFTDRMKDEVAKVLSKDEAKYVFTEAKKGELDDPLFNQFMEKFYNDYYSRFSKSQSKHAIDISNYQVANYMMGTNPFHTEGMMSGWNVSDKLYRIKTPTLILVGDQDMISPKKARVMADKLPNGKLEIIPDATHVSLRDNPEYFFQQLNQFLTN : not soluble
MSLKYLVIGSNSFTGASMVSYLLDQGADVVGISRSDEPHPAFLPYRWKKADRFRFQKLDLNHDLDAIMQLVTAERFPCIINFAAQSMVGESWANPDHWFMTNVVSTVRLHERLRICDFLERYVHVTTPEVYGNATGTLTEDAVFDPSTPYAVSRAAGDMSLRSYFRAYGFPVLFTRAANVYGPGQRLYRIVPRTILFIKLGRKLQLHGGGTSERSFIHAADVADATRRIACNGKLGDSYHISTDRIVTIRALVEMICAMMRVRFEDQVEIVGERLGKDAAYKLDSSKLRSELGWSDQITLEQGIEQTIAWIDRWFEELKSQPFDYAHKEGHHHHHH : not soluble
KNYDLIFGDSNTKKYYAQFAKEHKTHLYHQILQSNDEQFRFVENDQTVTSQTPFKS : not soluble
MQNGYTYEDYQDTAKWLLSHTEQRPQVAVICGSGLGGLVNKLTQAQTFDYSEIPNFPESTVPGHAGRLVFGILNGRACVMMQGRFHMYEGYPFWKVTFPVRVFRLLGVETLVVTNAAGGLNPNFEVGDIMLIRDHINLPGFSGENPLRGPNEERFGVRFPAMSDAYDRDMRQKAHSTWKQMGEQRELQEGTYVMLGGPNFETVAECRLLRNLGADAVGMSTVPEVIVARHCGLRVFGFSLITNKVIMDYESQGKANHEEVLEAGKQAAQKLEQFVSLLMASIPV : soluble
MNIAIGTTQDRALYEDALRVRRLVFIEEQNVPEDEEIDAFEDDSFHLVLYDGQTPVGAGRLRFIDEGVGKIERICVLPSYRGRGAGRMVMEAIEQLAKTKGAKTAKLNAQTHAEPFYQKLGYTTVSGVFMDAGIPHVTMVKSLE : soluble
AHHHHHHGSPKIEPFEKYTERYEEWFERNKFAYLSELNALKSLLPTRECVEVGIGSGRFAAPLGIKMGVEPSKKMAEIARKRGIRVIEGVAENLPFEDNSLDCILMVTTICFVDDPEKAIKEAYRVLKPGGYIVIGFVDKESLIGREYEKRKDKSVFYRDARFFSAREIMELLERNGFKIDGVVQTLFKKLDEIRDVEPVEEGYGRGSFVVIRAKKVV : soluble
MGSDKIHHHHHHENLYFQGMSRKVILTCAVTGNAPFNPKHPSMPITPAQIADACVEAAKAGASVAHIHVRDPKTGGGSRDPVLFKEVVDRVRSSGTDIVLNLTCGLGAFLLPDPEDESKALPESDVVPVAERVKHLEDCLPEIASLDITTGNQVEGKLEFVYLNTTRTLRAMARRFQELGIKPELEVFSPGDILFGKQLIEEGLIDGVPLFQMVLGVLWGAPASTETMIYQRNLIPANAQWAAFGIGRDQMPMMAQAALLGGNVRVGLEDNLYLSRGVFATNGQLVERARTVIEHLGMSVATPDEARDIMGLSRPA : soluble
MGSDKIHHHHHHMTISRNYDQEIKDTAGHKYAYNFDFDVMHPFMVRAFTPFFRPGNLLELGSFKGDFTSRLQEHFNDITCVEASEEAISHAQGRLKDGITYIHSRFEDAQLPRRYDNIVLTHVLEHIDDPVALLKRINDDWLAEGGRLFLVCPNANAVSRQIAVKMGIISHNSAVTEAEFAHGHRCTYALDTLERDASRAGLQVTYRSGIFFKALANFQWDQILQTDILSKEYLDGCYQLGQQYPDLCASIFLLCEKGINQ : not soluble

Fill in soluble on expression in E. coli for each of the 3 sequences listed.
1. MKVAVLGATGKEGQLLLAEAKRRGMDVTAIVRNASKITDGTPTIEKDVYQLTTEDIQAFDVLISALGFPDVQDFPKSTQHLIEILTNQKTRLFVVGGAGTLYVDPEHTTQLKDTPSFPAEIQPLASAMGEALNLLKEAQNIHWTYISPAAMFDADGPATGHYEVAGEELTTNSQGDSYISYADYAVAMLDEVESNAHPNQRISVYQLEHHHHHH
2. MGSDKIHHHHHHENDPPLSSCGIFQSRIAGDALLDSGIRISSVFASPALRCVQTAKLILEELKLEKKIKIRVEPGIFEWTKWEAGKTTPTLMSLEELKEANFNIDTDYRPAFPLSALMPAESYQEYMDRCTASMVQIVNTCPQDTGVILIVSHGSTLDSCTRPLLGLPPRECGDFAQLVRKIPSLGMCFCEENKEEGKWELVNPPVKTLTHGANAAFNWRNWISGN
3. QTSIPTIFVGGDYARAFSTDGFVHRLTAAHLMTKGLVVHVSHAGHVTVQQFGPLKNNPTIQVIFADNHHAKRQARQFATVMQGLAKRYHVTRYNAVGHSSGGNIIFDYLTAQVPQRAQINKFVTIGSTYPGLTTQQLNRLPRSLPILNIAGHVWHTSGDGGVNLQAVLKFSHQLLAAGWSPKTQIIHGSPLTASHSMLHINPQVDLLIIQFLYGN

output:
1: soluble; 2: not soluble; 3: not soluble

Values from the DeepSol protein solubility set
